// compounds with reported IC50 on Tyrosine-protein kinase JAK3 (Homo sapiens), multi-publication
metric: IC50 (nM)

| structure | comparator | measured |
| --- | --- | --- |
| CC(=O)Nc1ccc(-c2nc(Nc3ccc(N4CCOCC4)cc3)ncc2C(F)(F)F)cc1 | > | 980 |
| N#CCC1CCN(c2nc(Nc3ccc(N4CCC(O)CC4)cc3)c3c(=O)[nH]ncc3n2)CC1 | = | 11 |
| CC(=O)Nc1ccc(-c2ccnc(Nc3cccc(NC(=O)c4ccccc4)c3)n2)cc1 | > | 980 |
| Cc1cnc(Nc2ccc(F)cc2)nc1-c1cc2c(o1)CCN(C(=O)CC#N)C2 | = | 95.7 |
| O=C1NC(=O)C(c2c[nH]c3ccccc23)=C1Nc1cccc(C2CN(c3ccnc(F)c3)C2)c1 | = | 576 |
| N#C/C(=C\C1CC1)C(=O)N1CCC[C@@H](n2nc(-c3ccc(NC(=O)c4ccccc4)c4c3OCO4)c3c(N)ncnc32)C1 | > | 10000 |
| COc1cc2nccc(Oc3ccc(NC(=O)c4c(C)n(C)n(-c5ccccc5)c4=O)cc3F)c2cc1OC | = | 10000 |
| Cc1cc(-c2ccnc(Nc3ccc(N4CCOCC4)cc3)n2)ccc1C(=O)NCC#N | > | 1000 |
| O=C1NC(=O)C(c2c[nH]c3ccccc23)=C1Nc1cccc(OCCNc2ccccn2)c1 | = | 1500 |

====

// compounds with reported IC50 on Tyrosine-protein kinase JAK3 (Homo sapiens), multi-publication
# testedOn: Tyrosine-protein kinase JAK3 (Homo sapiens)
# Sequence (P52333 whole entry): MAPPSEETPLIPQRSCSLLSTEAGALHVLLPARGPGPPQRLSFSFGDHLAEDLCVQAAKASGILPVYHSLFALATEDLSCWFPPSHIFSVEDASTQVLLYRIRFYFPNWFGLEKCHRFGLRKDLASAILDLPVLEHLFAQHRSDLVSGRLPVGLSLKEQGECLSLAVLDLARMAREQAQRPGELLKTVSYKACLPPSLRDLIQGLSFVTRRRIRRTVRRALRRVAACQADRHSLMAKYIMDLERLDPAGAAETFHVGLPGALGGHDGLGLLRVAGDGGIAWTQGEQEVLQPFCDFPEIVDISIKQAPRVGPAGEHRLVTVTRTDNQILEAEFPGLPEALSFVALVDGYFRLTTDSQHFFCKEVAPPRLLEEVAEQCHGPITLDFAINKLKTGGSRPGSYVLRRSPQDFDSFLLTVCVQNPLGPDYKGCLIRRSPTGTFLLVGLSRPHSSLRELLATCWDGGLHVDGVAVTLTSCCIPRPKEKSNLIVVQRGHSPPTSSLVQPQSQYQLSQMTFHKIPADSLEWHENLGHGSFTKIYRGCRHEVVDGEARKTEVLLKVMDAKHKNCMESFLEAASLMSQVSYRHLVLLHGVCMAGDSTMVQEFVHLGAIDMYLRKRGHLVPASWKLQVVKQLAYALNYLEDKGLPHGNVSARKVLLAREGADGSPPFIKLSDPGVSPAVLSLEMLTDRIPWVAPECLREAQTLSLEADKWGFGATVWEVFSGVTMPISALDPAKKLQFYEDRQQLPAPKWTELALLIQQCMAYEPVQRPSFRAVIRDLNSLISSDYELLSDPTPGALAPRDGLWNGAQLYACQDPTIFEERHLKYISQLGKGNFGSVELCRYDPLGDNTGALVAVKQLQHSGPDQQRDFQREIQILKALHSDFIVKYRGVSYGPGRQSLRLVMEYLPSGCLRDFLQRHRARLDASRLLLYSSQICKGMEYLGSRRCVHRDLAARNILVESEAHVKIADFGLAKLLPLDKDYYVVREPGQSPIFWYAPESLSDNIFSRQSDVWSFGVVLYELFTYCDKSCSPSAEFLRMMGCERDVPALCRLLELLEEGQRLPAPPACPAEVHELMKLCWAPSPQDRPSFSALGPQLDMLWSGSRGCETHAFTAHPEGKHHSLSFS
Exam item: assign true (1) to entries whose IC50 is below 2000 nM and false (0) to entries at or above 2000 nM. Note that a value of exactly 2000 nM receives false (0).

| compound | testedOn | classLabel |
| --- | --- | --- |
| Cc1[nH]nc2[nH]c(=O)cc([C@H]3CC[C@H](NC(=O)[C@H]4CC4(F)F)CC3)c12 | Tyrosine-protein kinase JAK3 (Homo sapiens) | false (0) |
| O=C1NC(=O)C(c2c[nH]c3ccccc23)=C1Nc1cccc(C2CCN(c3ccnc(F)c3)C2)c1 (racemic) | Tyrosine-protein kinase JAK3 (Homo sapiens) | false (0) |
| CC1(C)[C@H](Nc2c(C(N)=O)cnn3cc(-c4cccc(C#N)c4)cc23)CC[C@]1(C)N | Tyrosine-protein kinase JAK3 (Homo sapiens) | true (1) |
| CN(C)[C@H]1CCCN(c2ccc(C(F)(F)F)cc2NC(=O)c2cc(C#Cc3cnc(N)nc3)ccc2F)C1 | Tyrosine-protein kinase JAK3 (Homo sapiens) | true (1) |
| N#CCC(=O)Nc1cccc(CNc2c(C(N)=O)cnn3cccc23)c1 | Tyrosine-protein kinase JAK3 (Homo sapiens) | true (1) |
| O=C(CCCCCCn1cc(-c2ncnc3[nH]ccc23)cn1)NO | Tyrosine-protein kinase JAK3 (Homo sapiens) | true (1) |
| Cc1ccc(NC(=O)c2ccc(C(C)(C)C)cc2)cc1C(=O)Nc1cnc(Nc2ccc(N3CCN(C)CC3)cc2)nc1 | Tyrosine-protein kinase JAK3 (Homo sapiens) | false (0) |
| CS(=O)(=O)Nc1cc(-c2ccncc2)cnc1Cl | Tyrosine-protein kinase JAK3 (Homo sapiens) | false (0) |
| O=C1NC(=O)C(c2c[nH]c3ccccc23)=C1Nc1cccc(OCCCn2ccnc2)c1 | Tyrosine-protein kinase JAK3 (Homo sapiens) | true (1) |
